# Target Or System: SIRT1 (Homo sapiens, UniProt Q96EB6)
# Sequence (Q96EB6 whole entry): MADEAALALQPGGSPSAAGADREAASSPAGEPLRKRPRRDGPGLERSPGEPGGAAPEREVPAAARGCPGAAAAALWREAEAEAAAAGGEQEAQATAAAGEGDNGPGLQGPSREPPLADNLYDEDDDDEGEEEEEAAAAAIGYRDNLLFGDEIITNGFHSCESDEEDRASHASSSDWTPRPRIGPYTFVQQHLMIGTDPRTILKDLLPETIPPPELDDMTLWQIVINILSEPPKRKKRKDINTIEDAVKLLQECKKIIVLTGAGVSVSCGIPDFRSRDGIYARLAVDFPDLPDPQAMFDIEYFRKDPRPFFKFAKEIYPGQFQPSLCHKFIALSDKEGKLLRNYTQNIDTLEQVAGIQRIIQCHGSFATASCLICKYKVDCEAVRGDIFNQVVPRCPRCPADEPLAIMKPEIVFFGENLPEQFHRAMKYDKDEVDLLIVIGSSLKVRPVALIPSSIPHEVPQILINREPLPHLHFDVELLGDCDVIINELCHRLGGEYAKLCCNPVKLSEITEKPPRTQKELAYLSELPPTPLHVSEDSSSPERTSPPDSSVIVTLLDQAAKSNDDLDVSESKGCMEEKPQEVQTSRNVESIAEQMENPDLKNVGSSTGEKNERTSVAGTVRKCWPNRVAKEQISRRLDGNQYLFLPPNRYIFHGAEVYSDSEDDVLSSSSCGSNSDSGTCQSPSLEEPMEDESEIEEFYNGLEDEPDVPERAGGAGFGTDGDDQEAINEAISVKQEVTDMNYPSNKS
# Method: TAMRA based mass spectrometry assay of SIRT1 activity
# Type: biochemical
# Cond: TAMRA assay; concentration giving 150% activation of SIRT1
Measured Metric: TAMRA EC1.5 (μM)

# annotated cases, reported TAMRA EC1.5 (μM) shown
CCOc1cc(NC(=O)c2c(C)nn3ccc(-c4ccccc4C(F)(F)F)nc23)ccn1 ... A (EC1.5<1 μM)
O=C(Nc1cnc2ccc(-c3ccccc3Cl)nn12)c1ncccn1 ... B (EC1.5 1-25 μM)
COc1cccc(NC(=O)c2cnc3ccc(-c4ccccc4Cl)nn23)n1 ... A (EC1.5<1 μM)
O=C(Nc1cncc(N2CCOCC2)c1)c1cnc2ccc(-c3ccccc3C(F)(F)F)nn12 ... A (EC1.5<1 μM)
Cc1cccnc1C(=O)Nc1cnc2ccc(-c3ccccc3C(F)(F)F)nn12 ... A (EC1.5<1 μM)
Cc1nc2ccc(-c3ccccc3Cl)nn2c1NC(=O)c1cccc(N2CCC2)n1 ... A (EC1.5<1 μM)
Cc1nccc(NC(=O)c2c(C)nn3ccc(-c4ccccc4C(F)(F)F)nc23)c1C ... A (EC1.5<1 μM)
Cc1cnc(NC(=O)c2c(C)nn3ccc(-c4ccccc4C(F)(F)F)nc23)s1 ... A (EC1.5<1 μM)
O=C(Nc1cccnn1)c1cnn2ccc(-c3ccccc3OC(F)(F)F)nc12 ... A (EC1.5<1 μM)
O=C(Nc1ccccn1)c1cnc2ccc(-c3ccccc3OC[C@H](O)CO)nn12 ... A (EC1.5<1 μM)

Request: TAMRA EC1.5 (μM) for `Cc1cc(NC(=O)c2cnc3ccc(-c4ccccc4F)nn23)ccn1` ?
Result: B (EC1.5 1-25 μM)

Request: Would you kindly share the measured TAMRA EC1.5 (μM) for `O=C(Nc1cnn2ccc(-c3ccccc3C(F)(F)F)nc12)c1cc(O)ncn1` ?
Result: A (EC1.5<1 μM)

Request: What measured TAMRA EC1.5 (μM) goes with `Cc1cnc(NC(=O)c2cnn3ccc(-c4ccccc4C(F)(F)F)nc23)cn1` ?
Result: A (EC1.5<1 μM)

Request: What measured TAMRA EC1.5 (μM) goes with `O=C(Nc1cnc2ccc(-c3ccccc3OC(F)(F)F)nn12)c1ncccn1` ?
Result: A (EC1.5<1 μM)

Request: Need TAMRA EC1.5 (μM), item `Cc1cnc(C(=O)Nc2c(C)nc3ccc(-c4ccccc4C(F)(F)F)nn23)s1`
Result: B (EC1.5 1-25 μM)

Request: What value of measured TAMRA EC1.5 (μM) is listed for `COc1cc(NC(=O)c2c(C)nn3ccc(-c4ccccc4C(F)(F)F)nc23)ncn1` ?
Result: A (EC1.5<1 μM)

Request: For the compound shown here, `Cc1scnc1C(=O)Nc1cnc2ccc(-c3ccccc3C(F)(F)F)nn12` , give the reported TAMRA EC1.5 (μM).
Result: A (EC1.5<1 μM)

Request: TAMRA EC1.5 (μM) for `Cc1cc(C(=O)Nc2cnn3ccc(-c4ccccc4C(F)(F)F)nc23)nc(C)n1` ?
Result: A (EC1.5<1 μM)

Request: Looking for the measured TAMRA EC1.5 (μM) of `Cc1cc(-c2ccccc2C(F)(F)F)nn2c(C(=O)Nc3nccc(N4CCCC4)n3)cnc12` , can you help?
Result: A (EC1.5<1 μM)

Request: Which TAMRA EC1.5 (μM) is listed for `Cc1nc2c(N3CCOCC3)cc(-c3ccccc3C(F)(F)F)nn2c1C(=O)Nc1cccnn1` ?
Result: A (EC1.5<1 μM)

Request: What value of TAMRA EC1.5 (μM) has been recorded for this entry: `Cc1cc(NC(=O)c2c(C)nn3ccc(-c4ccccc4C(F)(F)F)nc23)cc(C)n1`
Result: A (EC1.5<1 μM)

Request: # lookup: TAMRA EC1.5 (μM) of `O=C(Nc1cnc2ccc(-c3ccccc3F)nn12)c1ccccn1`
Result: B (EC1.5 1-25 μM)
